Give measured Ki for each item. Keep answers brief.
# target entity: T1, HIS-PDZ2 protein (PSD-95 PDZ2, residues 155-249, with tag …) (human), P78352
# T1 chain: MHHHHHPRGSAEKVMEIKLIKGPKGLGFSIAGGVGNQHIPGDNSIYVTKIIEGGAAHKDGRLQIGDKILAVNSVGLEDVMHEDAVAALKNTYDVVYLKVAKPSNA
# measurement protocol: FP competition, fluorescent NR2B probe

Form: binder = ESDV (modifications not checked) [ESDV (8)] ; Ki = 28 µM

Form: binder = IETAV (modifications not checked) [IETAV (82)] ; Ki = 1.7 µM
